measurement_protocol: Mouse pharmacokinetics, oral gavage, plasma LC-MS/MS
Assay type: in vivo
applied_conditions: in vivo; mouse; single oral dose 5 mg/kg; read-out: average half-life (t1/2)
measured_attribute: half-life (h)
Give the number; h is assumed, so skip it.

Problem: Which half-life is listed for C=CC(=O)N[C@@H]1CN(c2nc(Nc3cn(C)nc3OC)c3ncn(C)c3n2)C[C@H]1F ?
Solution: 3.99

###

Tested on: HEK293T cells
measurement_protocol: in vitro
measured_attribute: CC50 (µM)
Give the number; µM is assumed, so skip it.

Problem: Which CC50 is listed for CCOC(=O)/C(=C/c1ncc([N+](=O)[O-])n1C)C(C)=O ?
Solution: 16.9
